Method: chemical genetic growth profiling, strain panel (AID 1159580);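 note: tested at 20 µM; growth read once vehicle control cultures reached saturation at 30 °C; 1 = growth at the plate median or of vehicle wells; lower values mean less growth of the strain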
Test conditions: S. cerevisiae deletion strains, growth OD, locus YIR030C, strain dcg1, hits give low values
About 2,000 (36%) of roughly 5,500 compounds were called active. Not shown: some 18% with an inconclusive outcome. Some of the results follow.
Assay readout: normalized growth
Hey, just send me the number, nothing else.

Molecule	normalized growth
O=c1n(CCCN2CCN(c3cccc(Cl)c3)CC2)nc2ccccn12	0.987

Qu. Could you share which normalized growth value was measured for Cc1cc(O)c2c(c1O)C(=O)c1c(O)cc(C)c(O)c1C2=O ?
Ans. 0.997

Qu. Could you share which normalized growth value was measured for CC(=O)OC1CCC23C(=O)OC45CCC(C6=CC(=O)OC6)C4(C)CCC2C5CCC3(O)C1 (stereo not drawn) ?
Ans. 1

====

Method: chemical genetic growth profiling, strain panel (AID 1159580)
Test conditions: S. cerevisiae deletion strains, growth OD, locus YJL092W, strain hpr5, hits give low values
Hit rate of the full screen: of about 5,500 compounds, about 2,000 (36%) were called active. Inconclusive results (about 18%) are left out. The list shows a part of the results.
normalized growth strictly under 1 means Satisfied; at 1 or over means Not satisfied.

Known results for compounds:
Compound	Group
COc1c2occc2cc2ccc(=O)oc12	Satisfied
O=c1[nH]c2ccccc2n1CCCN1CCC(n2c(=O)[nH]c3cc(Cl)ccc32)CC1	Satisfied
CCOc1nc2cccc(C(=O)OC(C)OC(=O)OC3CCCCC3)c2n1Cc1ccc(-c2ccccc2-c2nn[nH]n2)cc1 (stereo unspecified)	Not satisfied
CC(=O)c1ccc2c(c1)N(CCCN(C)C)c1ccccc1S2	Satisfied

Qu. Does the reported normalized growth of the following compound sit strictly below 1? CC(C)=CCc1c(O)cc2occ(-c3ccc4c(c3)OCO4)c(=O)c2c1O
Ans. Satisfied

====

Recorded normalized growth values for a group of compounds are listed next.
Method: chemical genetic growth profiling, strain panel (AID 1159580)
Test conditions: S. cerevisiae deletion strains, growth OD, locus YDR001C, strain nth1, hits give low values
Screen size: about 5,500 compounds; about 2,000 (36%) were called active. Another 18% or so got no clear call; they are omitted. The list shows a part of the results.
Hey, just send me the number, nothing else.

Qu. Could you share which normalized growth value was measured for Cn1c(=O)[nH]c(=O)c2[nH]cnc21 ?
Ans. 0.996

====

Method: chemical genetic growth profiling, strain panel (AID 1159580)
Test conditions: S. cerevisiae deletion strains, growth OD, locus YHR027C, strain rpn1, hits give low values
The whole screen tested about 5,500 compounds, of which about 2,000 (36%) were called active. Roughly 18% stayed inconclusive and do not appear here. The list shows a part of the results.
Assay readout: normalized growth
Hey, just send me the number, nothing else.

Consider the reported normalized growth for these molecules:
Molecule	Assay readout	Val
O=c1[nH]c2ccccc2n1C1CCN(CCCC(c2ccc(F)cc2)c2ccc(F)cc2)CC1	normalized growth	0.927
OC[C@@H](O)C(O[C@@H]1O[C@H](CO)[C@H](O)[C@H](O)[C@H]1O)[C@H](O)[C@@H](O)CO (some centres undefined)	normalized growth	1
Cn1c(=O)[nH]c(=O)c2[nH]cnc21	normalized growth	0.983
CCCCC/C=C\C/C=C\C/C=C\C/C=C\CCCC(=O)O	normalized growth	0.981

Qu. Could you share which normalized growth value was measured for Cc1cc(O)c2c(c1O)C(=O)c1c(O)cc(C)c(O)c1C2=O ?
Ans. 0.951

Qu. Could you share which normalized growth value was measured for O=c1[nH]c2ccccc2n1CCCN1CCC(n2c(=O)[nH]c3cc(Cl)ccc32)CC1 ?
Ans. 0.997

Qu. Could you share which normalized growth value was measured for COc1ccc2ccc(=O)oc2c1CC=C(C)C ?
Ans. 0.957

Qu. Could you share which normalized growth value was measured for CCCCC(=O)N(Cc1ccc(-c2ccccc2-c2nn[nH]n2)cc1)[C@H](C(=O)O)C(C)C ?
Ans. 0.994

Qu. Could you share which normalized growth value was measured for CC(C)=CCOc1cc2oc(=O)ccc2cc1O ?
Ans. 0.956

====

Method: chemical genetic growth profiling, strain panel (AID 1159580)
Test conditions: S. cerevisiae deletion strains, growth OD, locus YHR087W, strain rtc3, hits give low values
Screen size: about 5,500 compounds; about 2,000 (36%) were called active. About 18% were inconclusive and are not listed. This is one part of the list.
Assay readout: normalized growth
Hey, just send me the number, nothing else.

Consider the reported normalized growth for these compounds:
Compound	Val
COc1ccccc1N=C1SCC(=O)N1Cc1ccco1	0.989
CC(O)CNc1ccc(C(F)(F)F)cc1[N+](=O)[O-] (stereo unspecified)	1

Qu. Could you share which normalized growth value was measured for CCCCCc1ccc(S(=O)(=O)Nc2cccnc2Oc2ccc(Cl)cc2)cc1 ?
Ans. 0.987

====

Method: chemical genetic growth profiling, strain panel (AID 1159580)
Test conditions: S. cerevisiae deletion strains, growth OD, locus YNL183C, strain NPR1, hits give low values
Hit rate of the full screen: of about 5,500 compounds, about 2,000 (36%) were called active. Not shown: some 18% with an inconclusive outcome. This is one part of the list.
Assay readout: normalized growth
Hey, just send me the number, nothing else.

Consider the reported normalized growth for these compounds:
Compound	Val
Cc1cc(O)c2c(c1O)C(=O)c1c(O)cc(C)c(O)c1C2=O	0.951
Cn1c([N+](=O)[O-])cnc1COC(N)=O	0.957
CCOc1ccc(Cc2nccc3cc(OCC)c(OCC)cc23)cc1OCC	0.899
Fc1ccc(C(c2ccc(F)cc2)N2CCN(C/C=C/c3ccccc3)CC2)cc1	0.927
O=c1ccc2ccc(O)c(O)c2o1	0.94
FC(F)(F)c1ccc(NC(=S)Nc2ccc(C(F)(F)F)cc2Cl)c(Cl)c1	0.929
COc1cc(O)c(C(=O)O)c(O)c1	0.84
COc1ccc2[nH]cc(CCNC(C)=O)c2c1	0.942
O=C1CSC(=Nc2cc(Cl)cc(Cl)c2)N1Cc1cccnc1	1.03
O=c1[nH]cnc2nc[nH]c12	0.978

Qu. Could you share which normalized growth value was measured for Cn1cnc([N+](=O)[O-])c1Sc1ncnc2nc[nH]c12 ?
Ans. 1

Qu. Could you share which normalized growth value was measured for Nc1ncnc2nc[nH]c12 ?
Ans. 0.97

Qu. Could you share which normalized growth value was measured for OC[C@@H](O)[C@H](O)[C@@H](O)[C@H](O)CO ?
Ans. 0.941

====

Recorded normalized growth values for a group of compounds are listed next.
Method: chemical genetic growth profiling, strain panel (AID 1159580);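 note: tested at 20 µM; growth read once vehicle control cultures reached saturation at 30 °C; 1 = growth at the plate median or of vehicle wells; lower values mean less growth of the strain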
Test conditions: S. cerevisiae deletion strains, growth OD, locus YHR079C, strain IRE1 (second series), hits give low values
The campaign covered roughly 5,500 compounds. About 2,000 (36%) were called active. Roughly 18% stayed inconclusive and do not appear here. The list shows a part of the results.
Hey, just send me the number, nothing else.

Consider the reported normalized growth for these compounds:
Compound	normalized growth
Fc1ccc(C(c2ccc(F)cc2)N2CCN(C/C=C/c3ccccc3)CC2)cc1	0.972
CC1(C)S[C@@H]2[C@H](NC(=O)COc3ccccc3)C(=O)N2[C@H]1C(=O)O	1.02
CC1=C(C(=O)O)N2C(=O)[C@@H](NC(=O)[C@H](N)C3=CCC=CC3)C2SC1 (some centres not stated)	1

Qu. Could you share which normalized growth value was measured for COc1cc(OC)c2c(c1Cl)OC1(C2=O)C(O)=CC(=O)CC1C (configuration not stated) ?
Ans. 0.979

Qu. Could you share which normalized growth value was measured for O=C(CCCN1CC=C(n2c(=O)[nH]c3ccccc32)CC1)c1ccc(F)cc1 ?
Ans. 0.989

Qu. Could you share which normalized growth value was measured for CC1(C)C[C@@H]2C(=O)CC[C@H]3O[C@]3(C)CC[C@H]21 ?
Ans. 0.996

Qu. Could you share which normalized growth value was measured for O=c1[nH]c2ccccc2n1C1CCN(CCCC(c2ccc(F)cc2)c2ccc(F)cc2)CC1 ?
Ans. 0.994

====

Recorded normalized growth values for a group of compounds are listed next.
Method: chemical genetic growth profiling, strain panel (AID 1159580);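 note: tested at 20 µM; growth read once vehicle control cultures reached saturation at 30 °C; 1 = growth at the plate median or of vehicle wells; lower values mean less growth of the strain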
Test conditions: S. cerevisiae deletion strains, growth OD, locus YDL035C, strain GPR1, hits give low values
About 2,000 (36%) of roughly 5,500 compounds were called active. Not shown: some 18% with an inconclusive outcome. The list shows a part of the results.
Hey, just send me the number, nothing else.

Consider the reported normalized growth for these compounds:
Compound	normalized growth
CC(=O)O[C@@H]1CC2C(C)(C)C(=O)[C@@H]3O[C@@H]3[C@]2(C)C2CC[C@]3(C)C(=CC(=O)O[C@H]3c3ccoc3)[C@@]21C (stereo partly drawn)	0.958
O=c1[nH]cnc2nc[nH]c12	1.01

Next compound, normalized growth to be filled in.
Qu. Could you share which normalized growth value was measured for Nc1ncnc2nc[nH]c12 ?
Ans. 0.894

====

Method: chemical genetic growth profiling, strain panel (AID 1159580);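 note: tested at 20 µM; growth read once vehicle control cultures reached saturation at 30 °C; 1 = growth at the plate median or of vehicle wells; lower values mean less growth of the strain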
Test conditions: S. cerevisiae deletion strains, growth OD, locus YNL222W, strain SSU72, hits give low values
Hit rate of the full screen: of about 5,500 compounds, about 2,000 (36%) were called active. About 18% were inconclusive and are not listed. Some of the results follow.
Assay readout: normalized growth
Hey, just send me the number, nothing else.

Consider the reported normalized growth for these molecules:
Query smiles	normalized growth
Nc1ccccc1C(=O)N/N=C\c1cc(Cl)cc(Cl)c1O	0.967
N#C/C(=N/Nc1ccc(Cl)cc1)C(N)=S	0.428
COc1cc(OC)cc(/C(N)=N\O)c1	0.991
O=C(N/N=C\c1cc(Cl)cc(Cl)c1O)c1ccccc1Oc1ccccc1	0.971
Cc1c(Cl)cccc1N=C1SCC(=O)N1Cc1ccco1	0.969
N#C/C(=N/Nc1ccc(Cl)cc1)C(=O)C1CC1	0.848
O=C(O)c1cccc2cccc(C(=O)O)c12	0.089

Qu. Could you share which normalized growth value was measured for CCCCc1ccc(N=CNO)c(C)c1 ?
Ans. 0.985

Taken from PubChem BioAssay AID1159580.
